Molecular target: ScMyo3
Test: SPOT peptide array binding signal intensity (averaged, normalized) (arbitrary units (background-subtracted, floor 0; scale differs between SH3 domains)); higher = stronger binding of the SH3 domain to the peptide
Some binders, each annotated with its measured SPOT peptide array binding signal intensity.
REPORTED_ENDPOINT: SPOT peptide array binding signal intensity

{"BINDER": "TSFKGRPKPPKTLKH", "COMPARATIVE_SIGN": "=", "ASSAY_RESULT": 3}
{"BINDER": "SSSSSPPPLPTRRDH", "COMPARATIVE_SIGN": "=", "ASSAY_RESULT": 460}
{"BINDER": "RVTRKRPREPKSTND", "COMPARATIVE_SIGN": "=", "ASSAY_RESULT": 7}
{"BINDER": "YSRKKLPVVLSKMTL", "COMPARATIVE_SIGN": "=", "ASSAY_RESULT": 6}
{"BINDER": "STKKPRPPVKSKPKH", "COMPARATIVE_SIGN": "=", "ASSAY_RESULT": 5.5}
{"BINDER": "KTRLRPAFIQQLWSS", "COMPARATIVE_SIGN": "=", "ASSAY_RESULT": 10}
{"BINDER": "NNQRRKPLLLNIGDH", "COMPARATIVE_SIGN": "≤", "ASSAY_RESULT": 0}
